system: E. coli AG100; assay: Broth microdilution MIC, E. coli AG100 (wild-type parent); format: cell-based; conditions: Escherichia coli; wild-type parent E. coli AG100, broth microdilution; read-out: MIC E. coli AG100
ASSAY_ENDPOINT: MIC

1) NCCN1CCN(C(=O)N[C@@H](C(=O)N[C@H]2Cc3ccc(F)c(C(=O)O)c3OB2O)c2ncc(O)cc2F)C(=O)C1=O: 8 to 16 µg/mL

Asked: Quick check: MIC of CCNC(=O)NC(C(=O)N[C@H]1Cc2cccc(C(=O)O)c2OB1O)c1csc(N)n1 (some centres unmarked) ?
Given back: > 128 µg/mL

Asked: Quick check: MIC of CCN1CCN(C(=O)NC(C(=O)N[C@H]2Cc3ccc(Cl)c(C(=O)O)c3OB2O)c2ccc(O)c(O)c2Cl)C(=O)C1=O (some centres unmarked) ?
Given back: 2 to 4 µg/mL

Asked: Quick check: MIC of CC(=O)NCCN1CCN(C(=O)NC(C(=O)N[C@H]2Cc3cccc(C(=O)O)c3OB2O)c2ccc(O)c(O)c2Cl)C(=O)C1=O (some centres unmarked) ?
Given back: 2 to 4 µg/mL

Asked: Quick check: MIC of CCN1CCN(C(=O)NC(C(=O)N[C@H]2Cc3cccc(C(=O)O)c3OB2O)c2ccc(N)nc2)C(=O)C1=O (some centres unmarked) ?
Given back: 32 to 64 µg/mL

Asked: Quick check: MIC of NS(=O)(=O)NCCN1CCN(C(=O)NC(C(=O)N[C@H]2Cc3ccc(F)c(C(=O)O)c3OB2O)c2ccc(O)c(O)c2Cl)C(=O)C1=O (some centres unmarked) ?
Given back: 2 to 4 µg/mL

Asked: Quick check: MIC of CCN1CCN(C(=O)NC(C(=O)N[C@H]2Cc3cccc(C(=O)O)c3OB2O)c2ccc[n+](CC(=O)[O-])c2)C(=O)C1=O (some centres unmarked) ?
Given back: > 128 µg/mL

----------
system: E. coli AG100A; assay: microbe, parasite or virus in culture; format: cell-based; settings: Escherichia coli, read-out: MIC E. coli AG100A
Parameter: MIC. Scope: all listed entries.

1) CCCN1CCN(C(=O)NC(C(=O)N[C@H]2Cc3cccc(C(=O)O)c3OB2O)c2ccc(O)c(O)c2Cl)C(=O)C1=O (stereo partly drawn): 2 to 4 µg/mL
2) CCN1CCN(C(=O)N2C[C@@H](O)C[C@@H]2C(=O)N[C@H]2Cc3cccc(C(=O)O)c3OB2O)C(=O)C1=O: > 128 µg/mL

Now take the following compound into account.
Asked: MIC of CCN1CCN(C(=O)NC(C(=O)N[C@H]2Cc3cccc(C(=O)O)c3OB2O)c2ccc(S(N)(=O)=O)c(F)c2)C(=O)C1=O (stereo partly drawn) on E. coli AG100A?
Given back: 2 to 4 µg/mL

----------
system: E. coli AG100; assay: Broth microdilution MIC, E. coli AG100 (wild-type parent); type: cell-based; settings: Escherichia coli; wild-type parent E. coli AG100, broth microdilution; read-out: MIC E. coli AG100
Parameter: MIC. Scope: all listed entries.

Consider the worked cases shown below.
1) CCN1CCN(C(=O)NC(C(=O)N[C@H]2Cc3cccc(C(=O)O)c3OB2O)c2ccc(O)c(O)n2)C(=O)C1=O (stereo partly shown): 32 to 64 µg/mL
2) CCN1CCN(C(=O)NC(C(=O)N[C@H]2Cc3cccc(C(=O)[O-])c3OB2O)c2ccc[n+](CC(N)=O)c2)C(=O)C1=O (stereo partly shown): 32 to 64 µg/mL
3) O=C(O)c1cccc2c1OB(O)[C@@H](NC(=O)C(NC(=O)N1CCN(CCF)C(=O)C1=O)c1ccc(S(=O)(=O)NCCO)cc1)C2 (stereo partly shown): 32 to 64 µg/mL
4) NCCN1CCN(C(=O)N[C@H](C(=O)N[C@H]2Cc3ccc(F)c(C(=O)O)c3OB2O)c2ncc(O)cc2F)C(=O)C1=O: 32 to 64 µg/mL
5) CNCCN1CCN(C(=O)N[C@@H](C(=O)N[C@H]2Cc3ccc(F)c(C(=O)O)c3OB2O)c2ccc(O)c(O)c2Cl)C(=O)C1=O: 0.5 to 1 µg/mL
6) CCN1C[C@H](CCN)N(C(=O)NC(C(=O)N[C@H]2Cc3cccc(C(=O)O)c3OB2O)c2ncc(O)cc2F)C(=O)C1=O (stereo partly shown): > 128 µg/mL
7) CCN1CCN(C(=O)NC(C(=O)N[C@H]2Cc3ccc(F)c(C(=O)O)c3OB2O)c2csc(N)n2)C(=O)C1=O (stereo partly shown): 8 to 16 µg/mL
8) CCN1C[C@H](CO)N(C(=O)NC(C(=O)N[C@H]2Cc3cccc(C(=O)O)c3OB2O)c2ncc(O)cc2F)C(=O)C1=O (stereo partly shown): > 128 µg/mL

Asked: MIC of O=C(O)c1cccc2c1OB(O)[C@@H](NC(=O)C(NC(=O)N1C[C@@H]3CCCN3C(=O)C1=O)c1ccc(O)c(O)c1Cl)C2 (stereo partly shown) on E. coli AG100?
Given back: 32 to 64 µg/mL

Asked: MIC of CCN1CCN(C(=O)NC(C(=O)N[C@H]2Cc3cccc(C(=O)O)c3OB2O)c2cccs2)C(=O)C1=O (stereo partly shown) on E. coli AG100?
Given back: 32 to 64 µg/mL

Asked: MIC of CCN1CCN(C(=O)NC(C(=O)N[C@H]2Cc3cccc(C(=O)O)c3OB2O)c2ccc(OCCCN)cc2F)C(=O)C1=O (stereo partly shown) on E. coli AG100?
Given back: 32 to 64 µg/mL

Asked: MIC of Nc1nc(C(NC(=O)N2CCN(CCF)C(=O)C2=O)C(=O)N[C@H]2Cc3cccc(C(=O)O)c3OB2O)c(Cl)s1 (stereo partly shown) on E. coli AG100?
Given back: 32 to 64 µg/mL

Asked: MIC of NS(=O)(=O)c1ccc([C@@H](NC(=O)N2CCN(CCBr)C(=O)C2=O)C(=O)N[C@H]2Cc3cccc(C(=O)O)c3OB2O)cc1O on E. coli AG100?
Given back: 32 to 64 µg/mL

All values here come from patent US12173018B2.
